- System tested: IL-17A : IL-17RA binding (Homo sapiens, UniProt Q16552, K93Q)
- Construct: Name: IL-17A-Flag
- Sequence (Q16552 with tags, fused parts or gaps K93Q): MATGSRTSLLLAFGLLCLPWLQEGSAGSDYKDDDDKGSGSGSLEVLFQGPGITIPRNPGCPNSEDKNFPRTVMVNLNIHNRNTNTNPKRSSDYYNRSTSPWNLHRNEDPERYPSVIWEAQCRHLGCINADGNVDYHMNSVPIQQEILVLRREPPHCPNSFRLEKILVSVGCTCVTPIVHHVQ
- Assay: IL-17A(FLAG-tagged):IL-17RA(His-tagged) binding disruption Eu-HTRF assay, Protocol 1
- Protocol conditions: FLAG-IL-17A 2.5 nM at 2x final concentration; average if tested more than once
Measurement type: IC50

Compound | Data value
CC(C(F)F)n1cc(C(=O)N[C@H](c2nc3cc([C@@H](C)NC(=O)CCC(F)(F)F)ccc3[nH]2)C2CCC(F)(F)CC2)nn1 (some centres unmarked) [Example 85] | > 0.1 µM
C[C@@H](NC(=O)CCC(F)(F)F)c1ccc2[nH]c([C@@H](NC(=O)c3cnnn3CCOC(F)(F)F)C3CCC(F)(F)CC3)nc2c1 [Example 36] | > 0.1 µM
C[C@@H](NC(=O)CCC(F)(F)F)c1ccc2[nH]c([C@@H](NC(=O)c3conc3CCC(F)(F)F)C3CCC(F)(F)CC3)nc2c1 [Example 214] | 0.05 to 0.1 µM
C[C@@H](NC(=O)CCC(F)(F)F)c1ccc2[nH]c([C@@H](NC(=O)c3cnnn3CC3CC(F)(F)C3(F)F)C3CCC(F)(F)CC3)nc2c1 (some centres unmarked) [Example 82] | > 0.1 µM
O=C(CC1CC(F)(F)C1)N[C@@H](c1ccc2[nH]c([C@@H](NC(=O)c3nonc3C3CC3)C3CCC(F)(F)CC3)nc2c1)C1CC1 [Example 143] | < 0.05 µM
C[C@@H](NC(=O)CCC(F)(F)F)c1ccc2nc([C@@H](NC(=O)c3cnnn3CCC(C)(C)C)C3CCC(F)(F)CC3)[nH]c2c1 [Example 68] | > 0.1 µM
C[C@@H](NC(=O)CCC(F)(F)F)c1ccc2[nH]c(C(CC(C)(C)C(F)(F)F)NC(=O)c3ncnn3CC3CC3)nc2c1 (single isomer, unassigned) [Example 195] | > 0.1 µM
Cc1nonc1C(=O)N[C@@H](c1nc2ccc([C@H](NC(=O)CC3CC(F)(F)C3)C3CC3)cc2[nH]1)[C@@H]1CCCCO1 (relative stereo) [Example 249] | > 0.1 µM
CC(C)n1nccc1C(=O)N[C@H](c1nc2ccc([C@@H](C)NC(=O)CCC(F)(F)F)cc2[nH]1)C1CCC(F)(F)CC1 [Example 122] | > 0.1 µM
Cc1nocc1C(=O)N[C@@H](COC(C)(C)C(F)(F)F)c1nc2ccc([C@H](NC(=O)CC3CC(F)(F)C3)C3CC3)cc2[nH]1 [Example 77] | 0.05 to 0.1 µM
CC(C)(OC[C@H](NC(=O)c1nonc1OCC(F)(F)F)c1nc2cc([C@H](NC(=O)CC3CC(F)(F)C3)C3CC3)ccc2[nH]1)C(F)(F)F [Example 267] | < 0.05 µM
C[C@@H](NC(=O)CCC(F)(F)F)c1ccc2[nH]c([C@@H](NC(=O)c3cc(CCC(F)(F)F)on3)C3CCC(F)(F)CC3)nc2c1 [Example 217] | > 0.1 µM
CC(Cn1nncc1C(=O)N[C@H](c1nc2ccc([C@@H](C)NC(=O)CCC(F)(F)F)cc2[nH]1)C1CCC(F)(F)CC1)C(F)(F)F (single isomer, unassigned) [Example 71] | > 0.1 µM
O=C(N[C@H](c1nc2cc([C@H](NC(=O)C(F)(F)CC3CC3)C3CC3)ccc2[nH]1)C1CCC(F)(F)CC1)c1nonc1C1CC1 [Example 147] | 0.05 to 0.1 µM
